assayed.system: recombinant human NAMPT (Homo sapiens)
Sequence (P43490 whole entry): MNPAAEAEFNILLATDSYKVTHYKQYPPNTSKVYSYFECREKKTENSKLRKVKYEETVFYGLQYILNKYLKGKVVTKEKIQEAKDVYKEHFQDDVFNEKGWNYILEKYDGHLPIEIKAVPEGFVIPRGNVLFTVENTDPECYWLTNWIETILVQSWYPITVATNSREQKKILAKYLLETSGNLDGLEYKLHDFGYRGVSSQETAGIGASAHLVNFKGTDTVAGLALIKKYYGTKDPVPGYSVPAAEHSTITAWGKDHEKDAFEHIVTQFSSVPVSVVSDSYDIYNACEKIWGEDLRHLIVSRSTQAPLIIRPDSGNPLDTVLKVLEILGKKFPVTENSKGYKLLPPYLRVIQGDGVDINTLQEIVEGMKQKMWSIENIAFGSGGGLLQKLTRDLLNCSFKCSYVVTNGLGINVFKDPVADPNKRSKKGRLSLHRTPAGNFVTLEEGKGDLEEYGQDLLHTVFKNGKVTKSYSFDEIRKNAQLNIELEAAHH
protocol: NAMPT inhibition (fluorometric NMN detection)
test.context: NI = No inhibition at concentration < 1 mM, SD < 20%
pIC50: −log10 of the molar value.
reported.property: pIC50

For orientation, consider the following solved cases.
| test.smiles | assayed.system | pIC50 |
| --- | --- | --- |
| O=C(NCc1ccc(C(=O)Nc2ccccc2)cc1)c1ccccc1 | recombinant human NAMPT (Homo sapiens) | 3.55 |
| COC[C@H]1N[C@@H](c2ccc(NC(=O)CCCC3CCN(S(=O)(=O)c4ccc(C(C)(C)C)cc4)CC3)cc2)[C@H](OC)[C@@H]1OC | recombinant human NAMPT (Homo sapiens) | 3.86 |
| O=C(CCCC1CCN(C(=O)c2ccccc2)CC1)Nc1ccc([C@@H]2N[C@H](CO)[C@@H](O)[C@H]2O)cc1 | recombinant human NAMPT (Homo sapiens) | 4.00 |
| COC[C@H]1N[C@@H](c2ccc(NC(=O)CCCCCNC(=O)c3ccccc3)cc2)[C@H](OC)[C@@H]1OC | recombinant human NAMPT (Homo sapiens) | 3.22 |
| O=C(CCCCCNC(=O)c1ccccc1)Nc1ccccc1 | recombinant human NAMPT (Homo sapiens) | 3.95 |

P. CC(C)(C)c1ccc(S(=O)(=O)NCc2ccc(C(=O)Nc3ccc([C@@H]4N[C@H](CO)[C@@H](O)[C@H]4O)cc3)cc2)cc1
Q. COC[C@H]1N[C@@H](c2ccc(NC(=O)c3ccc(CNS(=O)(=O)c4ccc(C(C)(C)C)cc4)cc3)cc2)[C@H](OC)[C@@H]1OC
# input Which one would you say has the larger pIC50 value: P , or Q ? Output the label that corresponds to your choice.
# output Q

P. CC(C)(C)c1ccc(S(=O)(=O)N2CCC(CCCC(=O)Nc3ccccc3)CC2)cc1
Q. CC(C)(C)c1ccc(S(=O)(=O)NCc2ccc(C(=O)Nc3ccccc3)cc2)cc1
# input I'm curious, which of these has a smaller pIC50 number: P or Q ? Please indicate the selected item by its label.
# output P

---

Test system: MiaPaCa-2 cells
protocol: Measurement of intracellular NAD+ levels (cycling enzymatic assay)
Type: cell-based, human
test.context: 24 h, 100 μM of inhibitor, SD < 20%
reported.property: iNAD+ Depletion (%)
Kindly answer with a numeric value in %, unit omitted.

| compound | assay.value |
| --- | --- |
| O=C(CCCC1CCN(C(=O)c2ccccc2)CC1)Nc1ccccc1 [Compound 35] | 4 |
| CC(C)(C)c1ccc(S(=O)(=O)NCc2ccc(C(=O)Nc3ccccc3)cc2)cc1 [Compound 42] | 61 |
| O=C(CCCC1CCN(C(=O)c2ccccc2)CC1)Nc1ccc([C@@H]2N[C@H](CO)[C@@H](O)[C@H]2O)cc1 [Compound 22] | 77 |
| O=C(CCCCCNC(=O)c1ccccc1)Nc1ccccc1 [Compound 38] | 0 |
| CC(C)(C)c1ccc(S(=O)(=O)NCc2ccc(C(=O)Nc3ccc([C@@H]4N[C@H](CO)[C@@H](O)[C@H]4O)cc3)cc2)cc1 [Compound 24] | 9 |

# input Entry CC(C)(C)c1ccc(S(=O)(=O)N2CCC(CCCC(=O)Nc3ccc([C@@H]4N[C@H](CO)[C@@H](O)[C@H]4O)cc3)CC2)cc1 [Compound 21] has what iNAD+ Depletion (%)?
# output 0

# input Request the reported iNAD+ Depletion (%) associated with O=C(NCc1ccc(C(=O)Nc2ccccc2)cc1)c1ccccc1 [Compound 43]
# output 1

# input Return reported iNAD+ Depletion (%); argument: O=C(NCc1ccc(C(=O)Nc2ccc([C@@H]3N[C@H](CO)[C@@H](O)[C@H]3O)cc2)cc1)c1ccccc1 [Compound 25]
# output 0

# input Fill blank: measured iNAD+ Depletion (%) of the compound COC[C@H]1N[C@@H](c2ccc(NC(=O)c3ccc(CNC(=O)c4ccccc4)cc3)cc2)[C@H](OC)[C@@H]1OC [Compound 30] is ____.
# output 0

Each recorded value in this set is attributed to paper PMC10222582.
